For each record, write down the corresponding AIRE transcriptional activation functional score.
B1: library; numbered along this chain (parent)
chain: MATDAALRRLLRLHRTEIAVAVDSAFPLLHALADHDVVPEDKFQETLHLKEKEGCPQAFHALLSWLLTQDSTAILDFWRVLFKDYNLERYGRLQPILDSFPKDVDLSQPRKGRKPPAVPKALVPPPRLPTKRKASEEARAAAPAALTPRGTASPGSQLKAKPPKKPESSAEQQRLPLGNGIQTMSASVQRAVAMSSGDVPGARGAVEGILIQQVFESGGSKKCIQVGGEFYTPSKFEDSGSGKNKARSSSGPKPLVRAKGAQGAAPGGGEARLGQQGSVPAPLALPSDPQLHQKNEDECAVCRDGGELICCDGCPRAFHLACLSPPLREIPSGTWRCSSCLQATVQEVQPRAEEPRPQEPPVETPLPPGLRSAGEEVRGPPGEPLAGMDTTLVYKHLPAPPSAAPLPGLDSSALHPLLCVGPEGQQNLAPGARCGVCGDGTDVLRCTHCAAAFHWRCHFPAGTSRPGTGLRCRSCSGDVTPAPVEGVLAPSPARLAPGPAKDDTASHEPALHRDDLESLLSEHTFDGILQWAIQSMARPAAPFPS

Variants of: B1
Test: AIRE transcriptional activation functional score (insulin promoter-GFP; nonsense median 0, synonymous median 1) (normalised score); higher = higher AIRE activity (more reporter activation)
Settings: with insulin promoter-GFP reporter in HEK293
Give bare numbers.

A144C	1.04
P125W	1.36

Batch request: AIRE transcriptional activation functional score per item, same order as input.
1. T364A
2. N179E
3. P357C
4. P115Y

[reply]
1. 0.985
2. 1.14
3. 1.23
4. 0.917
